Where do these numbers come from? They come from ChEMBL document CHEMBL1201862.

Test system: NCI/ADR-RES
Test: NCI tumour cell line growth inhibition, 48 h
Activity calls are given as the source filed them. Rule as the data show it: active = GI50 up to about 1.1 µM and inactive = higher.
The reply should be one of these categories: yes (1) = active, no (0) = inactive

C=C(C)C[C@H](Sc1nc2ccccc2s1)[C@H](C)O :: no (0)
O=c1[nH]nc(-c2ccccc2)n1/N=C\CC/C=N\n1c(-c2ccccc2)n[nH]c1=O :: no (0)
CN1CCCN2CCN(C)CCN(CC1)CC2 :: no (0)

Req: // outcome(item) with item = N=C(N)Nc1ccc(CC(N)NCC(=O)O)cc1 (centres undefined)
Resp: no (0)

Req: // outcome(item) with item = "CN1C(=O)[C@@H]2[C@@H]3c4ccccc4N[C@@H]3c3[nH]c4ccccc4c3[C@@H]2C1=O"
Resp: no (0)

Req: // outcome(item) with item = "O=C1/C(=C\c2ccc(Cl)cc2Cl)Sc2scc(-c3ccc(O)c(O)c3)[n+]21"
Resp: no (0)

---

Item-by-item account of GI50
Tested on: MCF7
Test: NCI tumour cell line growth inhibition, 48 h
Activity calls are given as the source filed them. Rule as the data show it: active = GI50 up to about 1.1 µM and inactive = higher.

Consider the worked cases shown below.
C/C(Cl)=N/OC(=O)Nc1ccc(S(N)(=O)=O)c(C)c1 :: 5.38 µM (inactive)
C[C@]12CC[C@H]3[C@@H](CCC4=CC(=O)CC[C@@]43C)[C@]1(O)CC[C@]2(O)C(=O)CO :: > 100 µM (inactive)
COc1ccc(C(OCC2OC(n3ccc(NC(=O)c4ccccc4)nc3=O)C(O)C2O)(c2ccccc2)c2ccccc2)cc1 (configuration not stated) :: 2.22 µM (inactive)

Consider the record given below.
Req: Fill in reported GI50 for this entry: Cc1cc(O)c2c(c1O)C(=O)c1cccc(O)c1C2=O [ISLANDICIN]
Resp: > 100 µM (inactive)

---

Tested on: RXF 393
Assay: NCI tumour cell line growth inhibition, 48 h
Active and inactive are the calls of the source. Cut-off read from the data, not from the text of the source: active = GI50 up to about 1.1 µM and inactive = higher.
OBSERVED PROPERTY: GI50

Req: Fill in reported GI50 for this entry: "O=c1c2ccc(Cl)cc2oc2c(CNc3ccc(S(=O)(=O)Nc4nccs4)cc3)cccc12"
Resp: > 100 µM (inactive)

Req: Fill in reported GI50 for this entry: "COc1ccc2nc3cc(Cl)ccc3c(Sc3ccccc3[N+](=O)[O-])c2c1"
Resp: 49.5 µM (inactive)

Req: Fill in reported GI50 for this entry: COc1nc(N)nc2c1ncn2C1CC(O)C(CO)O1 (stereo not given)
Resp: > 100 µM (inactive)

Req: Fill in reported GI50 for this entry: "Cc1c(O)nc(/C=C/C(=O)O)nc1C(=O)O"
Resp: > 100 µM (inactive)

Req: Fill in reported GI50 for this entry: "Cc1cnc(SCCN2CCN(C)CC2)nc1-c1cc2ccccc2s1"
Resp: 10.1 µM (inactive)

Req: Fill in reported GI50 for this entry: Cc1nn(C(=O)c2ccc(Cl)cc2)c2c1C(c1cccc([N+](=O)[O-])c1)SC(=N)N2 (stereo not given)
Resp: > 10 µM (inactive)

---

Test system: SK-MEL-5
Assay: NCI tumour cell line growth inhibition, 48 h
Activity calls are given as the source filed them. Cut-off read from the data, not from the text of the source: active = GI50 up to about 1.1 µM and inactive = higher.
OBSERVED PROPERTY: GI50

Consider the worked cases shown below.
c1ccc(CSC(SCc2ccccc2)c2ccc3c(c2)OCO3)cc1 :: > 10 µM (inactive)
O=C(CN(c1ccccc1)c1ccccc1)n1nnc2ccccc21 :: 20.7 µM (inactive)
CCOc1cccc2cccnc12 :: > 100 µM (inactive)
Cc1cc(C)n(CN(Cn2nc(C)cc2C)C2CCCCC2)n1 :: 31.2 µM (inactive)

Req: Give SK-MEL-5 GI50 for the following molecule: O=C1OC(CC(=O)c2ccc(Cl)cc2Cl)C(Cl)=C1Cl (stereo not given)
Resp: 45.6 µM (inactive)

---

Test system: MOLT-4
Assay: NCI tumour cell line growth inhibition, 48 h
The source made the active and inactive calls. Rule as the data show it: active = GI50 up to about 1.1 µM and inactive = higher.
Item-by-item account of GI50

Consider the worked cases shown below.
COC(=O)[C@@H]1[C@H](O)CC[C@H]2[C@@]1(C)CC[C@@H](C)[C@]2(COC(C)=O)CC(=O)c1ccoc1 :: 28.6 µM (inactive)
COc1ccc(CC2c3c(cc(OC)c(OC)c3OC)CCN2C)cc1OC (stereo not drawn) :: > 100 µM (inactive)
CC(=O)CC(=O)Nc1ccccc1[N+](=O)[O-] :: > 100 µM (inactive)
O=C(CCc1n[nH]c(=S)o1)Nc1cc(Cl)c(Cl)cc1Cl :: 45 µM (inactive)
CCOP(=O)(OCC)/C(C#N)=C/c1ccc[nH]1 :: > 100 µM (inactive)
COc1cc(CNC(=O)[C@H](Cc2ccc(O)cn2)NC(C)=O)cc(OC)c1 :: 57.8 µM (inactive)
COc1nc(-c2cn(S(=O)(=O)c3ccc(C)cc3)c3ccc(Br)cc23)cc(C(F)(F)F)c1C#N :: 31.3 µM (inactive)
CC(C)(C)[Si](C)(C)OC1/C(=C/C#N)C(n2ccc(=O)[nH]c2=O)OC1CO (stereo not drawn) :: > 100 µM (inactive)
Cc1ccc(NC(=O)CC(=O)N2N=C(N(C)c3ccccc3)CC2c2ccccc2)cc1 (stereo not drawn) :: > 100 µM (inactive)
N=C(N)Nc1ccc(CC(N)NCC(=O)O)cc1 (stereo not drawn) :: > 25 µM (inactive)

Req: Fill in reported GI50 for this entry: "Nc1ccccc1C(=O)/C=C/c1ccccc1O"
Resp: 31.3 µM (inactive)

Req: Fill in reported GI50 for this entry: "C/C(=N/N)c1sc(-c2nc(C)c(/C(C)=N\N)s2)nc1C"
Resp: 24.5 µM (inactive)

Req: Fill in reported GI50 for this entry: CCCCCCCC/C=C1\CCC(CN(C)C)C1=O (stereo not drawn)
Resp: 2.68 µM (inactive)

---

Test system: HT-29
Test: NCI tumour cell line growth inhibition, 48 h
Calls of active or inactive are those of the source. Cut-off read from the data, not from the text of the source: active = GI50 up to about 1.1 µM and inactive = higher. Numbered stars: 1 amine (or outer) side, 2 acyl side, 3 side chain; on linkers, the order of the positions; unused ones are H or OH. Bridge positions count the residues as written; N and C are the ends. Square brackets hold non-standard residues; d marks the D form. Peptide text beside a SMILES is read from it. X58 = COc1c(N[*:1])cccc1C(=O)O[C@H](C(=O)[C@H](C)C(=O)[*:2])C(C)C; X57 = CC(C)C[C@H](C(=O)[*:2])C(C)C(=O)C1CCCN1[*:1]; NMeY = CN[C@@H](Cc1ccc(O)cc1)C(=O)O; Lac = C[C@H](O)C(=O)O
OBSERVED PROPERTY: GI50

Consider the worked cases shown below.
NC(=O)/C(=N\NC(=O)C[n+]1ccccc1)C1NC(=O)NC1=O (stereo not given) :: > 100 µM (inactive)
O=C(C=C1SCCS1)/C=C\c1ccc(Cl)cc1 :: 41.4 µM (inactive)
Sc1nnc(-c2ccccc2)n1/N=C\c1ccc(-c2ccc(Cl)cc2)o1 :: > 100 µM (inactive)
CCOC(=O)N1CCN(Cc2cc(=O)n3ccc(C)cc3n2)CC1 :: > 100 µM (inactive)
CCN(CC)CCNc1c(OC)cc(C)c2sc3ccccc3c(=O)c12 :: 2.61 µM (inactive)
O=C(Cc1csc(N/N=C2\C(=O)Nc3ccccc32)n1)Nc1ccccc1 :: 27 µM (inactive)

Req: Fill in reported GI50 for this entry: "O=C1C=C(OCCCCl)C(=O)c2c(O)ccc(O)c21"
Resp: 0.581 µM (active)

Req: Fill in reported GI50 for this entry: "CCOC(=O)/C=C/C1=C(Br)[C@@]2(C)CC[C@@H]3c4ccc(O)cc4CC[C@H]3[C@@H]2C1"
Resp: 14.6 µM (inactive)

Req: Fill in reported GI50 for this entry: "Cc1cccc2oc3c(CC(=O)O)cccc3c(=O)c12"
Resp: > 100 µM (inactive)

Req: Fill in reported GI50 for this entry: FC(F)(F)c1ccc2c(c1)nc(Cc1ccccc1)n2C[C@@H]1CCCN2CCCCC12 (stereo not given in full)
Resp: 12 µM (inactive)

Req: Fill in reported GI50 for this entry: "CSC1=NC=CCN1C"
Resp: > 100 µM (inactive)

Req: Fill in reported GI50 for this entry: COc1ccc(C[C@H]2C(=O)O[C@H](C)[C@H](NC(=O)[C@@H](CC(C)C)C(C)C(=O)C3CCCN3C(=O)[C@H](C)O)C(=O)Nc3cccc(c3OC)C(=O)O[C@@H](C(C)C)C(=O)[C@H](C)C(=O)N[C@@H](CC(C)C)C(=O)N3CCC[C@H]3C(=O)N2C)cc1 (stereo not given in full) (H-[Lac][X57]T[X58]LP[NMeY](Me); ester 3-C)
Resp: 2.79 µM (inactive)

Req: Fill in reported GI50 for this entry: "CCOC(=O)CCCn1nnc(C(=O)OCC)c1C(=O)OCC"
Resp: > 100 µM (inactive)

Req: Fill in reported GI50 for this entry: "CCN(CC)C(=S)SS(=O)(=O)c1ccccc1C(=O)O"
Resp: > 100 µM (inactive)

Req: Fill in reported GI50 for this entry: "Cc1cc(N=C2C=C(Br)C(=O)C(Br)=C2)cc(CN(CC(=O)O)CC(=O)O)c1O"
Resp: > 100 µM (inactive)

Req: Fill in reported GI50 for this entry: COCCNC(=O)C1C(=O)C(=O)N(CCOC)C1=O (stereo not given)
Resp: > 100 µM (inactive)

Req: Fill in reported GI50 for this entry: Cc1ccc([S+]([O-])C[C@](NC(=O)OCc2ccccc2)(Sc2ccccc2)C(F)F)cc1 (stereo not given in full)
Resp: 16.6 µM (inactive)

Req: Fill in reported GI50 for this entry: "COc1cc2c(cc1OC)C(=O)/C(=C/c1ccc(Cl)cc1)CC2"
Resp: > 10 µM (inactive)

Req: Fill in reported GI50 for this entry: "CCOC(=O)C(C(=O)c1ccccc1-c1ccccc1C(=O)O)=P(c1ccccc1)(c1ccccc1)c1ccccc1"
Resp: 25 µM (inactive)

Req: Fill in reported GI50 for this entry: "COc1ccc2nc3cc(Cl)ccc3c(NCCCN(C)CCCNc3ccc4ncn5c6ccccc6c(=O)c3c45)c2c1"
Resp: 0.0025 µM (active)
